Data credit: patent US20190315842A1

Entries and their AtheNA signal
EXPERIMENTAL TARGET: T1, sclerosis autoantigen (Scl-70) (UniProt P11387 2-765, limits assumed)
T1 sequence (looked up): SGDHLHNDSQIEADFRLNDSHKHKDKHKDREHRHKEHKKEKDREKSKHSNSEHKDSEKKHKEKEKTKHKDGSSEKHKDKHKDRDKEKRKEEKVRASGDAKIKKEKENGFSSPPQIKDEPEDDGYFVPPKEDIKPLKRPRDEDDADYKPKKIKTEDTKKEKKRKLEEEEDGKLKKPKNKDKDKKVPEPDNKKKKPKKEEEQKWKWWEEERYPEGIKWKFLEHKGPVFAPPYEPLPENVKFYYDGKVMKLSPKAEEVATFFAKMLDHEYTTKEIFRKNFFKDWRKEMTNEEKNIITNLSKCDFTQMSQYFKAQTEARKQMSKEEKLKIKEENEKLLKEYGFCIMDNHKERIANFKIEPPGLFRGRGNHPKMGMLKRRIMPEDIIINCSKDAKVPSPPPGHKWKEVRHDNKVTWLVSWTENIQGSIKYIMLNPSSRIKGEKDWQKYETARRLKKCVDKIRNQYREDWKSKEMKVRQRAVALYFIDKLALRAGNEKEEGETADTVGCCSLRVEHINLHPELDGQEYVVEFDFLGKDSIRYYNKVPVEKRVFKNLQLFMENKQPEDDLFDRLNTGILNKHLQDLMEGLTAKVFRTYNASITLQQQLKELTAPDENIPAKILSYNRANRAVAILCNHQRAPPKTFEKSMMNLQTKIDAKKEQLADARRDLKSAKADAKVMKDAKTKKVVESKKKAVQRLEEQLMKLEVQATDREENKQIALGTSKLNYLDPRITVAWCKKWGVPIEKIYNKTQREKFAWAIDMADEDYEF
TEST DESCRIPTION: AtheNA Multi-Lyte ANA, Ab at 6.25 ug/ml;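 note: monoclonal antibodies screened for reactivity against a panel of nuclear autoantigens, with an anti-HIV and an anti-RSV monoclonal antibody serving as controls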
QUANTITY MEASURED: AtheNA signal

BINDER: Ab7960/293i (antibody, IgG1, V domains shown, Recombinant human antibody with IgG1 heavy chain backbone and kappa light chain constant; they begin at LVESGGG and MTQSP; also called mAb 7960; mAb7960) VH: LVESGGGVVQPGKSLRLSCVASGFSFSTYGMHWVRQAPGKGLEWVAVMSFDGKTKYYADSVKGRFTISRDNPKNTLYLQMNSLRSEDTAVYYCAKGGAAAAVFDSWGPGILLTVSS VL: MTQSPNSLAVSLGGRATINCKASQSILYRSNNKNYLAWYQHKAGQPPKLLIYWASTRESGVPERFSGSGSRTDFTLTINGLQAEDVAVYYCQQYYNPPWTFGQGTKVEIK
QUANTITY MEASURED: AtheNA signal
OBS VALUE: 1
//
BINDER: Ab7968 (antibody, IgG1, V domains shown, Recombinant human antibody with IgG1 heavy chain backbone and kappa light chain constant; they begin at LVESGGG and MTQSP; also called mAb 7968; mAb7968) VH: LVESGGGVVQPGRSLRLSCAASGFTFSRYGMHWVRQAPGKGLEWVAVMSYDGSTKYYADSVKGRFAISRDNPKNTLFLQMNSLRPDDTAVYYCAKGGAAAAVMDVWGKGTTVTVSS VL: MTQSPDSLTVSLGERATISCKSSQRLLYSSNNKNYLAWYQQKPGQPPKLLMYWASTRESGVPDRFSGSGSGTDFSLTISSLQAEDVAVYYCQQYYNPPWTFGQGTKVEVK
QUANTITY MEASURED: AtheNA signal
OBS VALUE: 3
//
BINDER: Ab7957/293i (antibody, IgG1, V domains shown, Recombinant human antibody with IgG1 heavy chain backbone and kappa light chain constant; they begin at LVESGGG and MTQSP; also called Ab7957i; mAb 7957) VH: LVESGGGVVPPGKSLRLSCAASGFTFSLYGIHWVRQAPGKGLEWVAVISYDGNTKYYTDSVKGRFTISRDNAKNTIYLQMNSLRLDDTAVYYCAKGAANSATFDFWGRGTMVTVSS VL: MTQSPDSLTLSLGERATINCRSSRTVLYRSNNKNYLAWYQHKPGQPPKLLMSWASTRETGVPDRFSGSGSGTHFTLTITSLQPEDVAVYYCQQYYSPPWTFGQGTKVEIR
QUANTITY MEASURED: AtheNA signal
OBS VALUE: 2
//
BINDER: Ab7961/293i (antibody, IgG1, V domains shown, Recombinant human antibody with IgG1 heavy chain backbone and kappa light chain constant; they begin at LVESGGG and MTQSP; also called mAb 7961; clone 24) VH: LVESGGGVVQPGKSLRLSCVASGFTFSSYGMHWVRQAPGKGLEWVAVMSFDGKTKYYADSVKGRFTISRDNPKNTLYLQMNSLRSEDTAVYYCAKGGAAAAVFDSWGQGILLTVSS VL: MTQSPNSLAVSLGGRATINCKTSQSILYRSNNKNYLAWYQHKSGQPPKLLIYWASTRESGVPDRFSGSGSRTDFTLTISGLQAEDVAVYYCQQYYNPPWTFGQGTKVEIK
QUANTITY MEASURED: AtheNA signal
OBS VALUE: 2
//
BINDER: Ab7962/293i (antibody, V domains shown, Recombinant human antibody with IgG1 heavy chain backbone and kappa light chain constant (IgM in the donor B cell); they begin at LVESGGG and MTQSL; also called clone 27; pH007962/pK005996) VH: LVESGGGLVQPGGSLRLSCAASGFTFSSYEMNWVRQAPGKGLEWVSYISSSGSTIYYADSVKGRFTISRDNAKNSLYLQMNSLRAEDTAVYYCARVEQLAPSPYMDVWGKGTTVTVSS VL: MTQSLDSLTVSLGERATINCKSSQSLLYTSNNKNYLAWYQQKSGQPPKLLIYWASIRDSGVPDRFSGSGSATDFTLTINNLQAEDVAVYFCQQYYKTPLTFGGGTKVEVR
QUANTITY MEASURED: AtheNA signal
OBS VALUE: 1
